method: protein stability index of a GFP-peptide fusion (GPS, HEK-293T) (PSI 1-6); higher = more stable;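 also: 24-mer peptide tiles fused after GFP, lentivirally expressed, FACS-sorted into six equal bins by GFP/DsRed ratio, decoded by Illumina sequencing, PSI is the read-weighted mean bin number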
particulars: treatment: MLN4924 1 uM, 8 h; c terminus: a fixed tail appended
property: protein stability index
One number for each entry.

Please review the following examples before continuing.
INSERT INTO measurements (monomer_sequence, property, numeric_value) VALUES
  ('LRVEQKDFPAHRIVLAACSDYFCA [KLHL12]', 'protein stability index', 2.07),
  ('CLIQKAQWTVGKLNCPFCGARLGG [RNF180]', 'protein stability index', 2.79),
  ('GGGGGGGGTSSNNSEEEEDDDDEE [ANKRD17]', 'protein stability index', 5.55);

// each listed sequence needs a value for protein stability index
1. MSDLLSVFLHLLLLFKLVAPVTFR [CPN1]
2. HFHPTVIGESMYGDFEEAFDHLQN [TENT5C]
3. QERSRVLNQVADLLEQSLEEFAQA [ALDH8A1]
4. SLIGHLQTLSPDMQGAYCTFPASV [DUSP5]

1. 3.33
2. 3.9
3. 4.26
4. 2.2

###

method: protein stability index of a GFP-peptide fusion (GPS, HEK-293T) (PSI 1-6); higher = more stable
particulars: treatment: DMSO; c terminus: a fixed tail appended
Kindly state protein stability index for each of the entries shown.
One number for each entry.

Example entries begin here.
INSERT INTO results (monomer_sequence, property, numeric_value) VALUES
  ('LCKNLNREAQQYSEALASTRILKH [GLIPR2]', 'protein stability index', 3.57),
  ('VFGVPLTVNVQRTGQPLPQSIQQA [DLC1]', 'protein stability index', 2.79),
  ('PYARIQQSRRQCHAEEDQSQVPEA [SMIM2]', 'protein stability index', 5.3);

Hi, could you look up protein stability index for each item in my list?
1. EQCIKLWLHALHLRQKGNRNTHKD [FEM1B]
2. AMCVRYDGVEVDDSYCDALTRPEP [ADAMTSL2]
3. HMNVEALPEWISCLIQKAQWTVGK [RNF180]
4. LHAWQINWPARQRGTHAVVGVATA [SPSB4]
5. TNDGNHPSCQETRDYAPPSRGYAY [RBMY1A1]
6. ERVWALAQEKAADVQARLNRSDHG [FCHSD1]
7. LASISTYGFRGEALASISHVAHVT [MLH1]

[2.39, 4.37, 2.32, 2.39, 4.33, 4.23, 2.19]

I have 8 sequences here; please give me protein stability index for each one.
1. IPPSSDRTPEILKKALSGLSSRWK [CDS1]
2. RVLDGKEAKAVGLISHVLEQNQEG [AUH]
3. AHWQCGATLTQVSVEYGYRPGATA [FCHO1]
4. PEYTYGISNIDTTIEGTSDDLTVV [MFF]
5. LDDEDDDEEDCPNPEEYNLDEPNA [SRPK2]
6. SEGRRVSFGVDEEERVRVLQGVRL [CHCHD6]
7. FDVDHGICIMDAENITTVSVIKDH [WDR88]
8. AGSTAGAAETRGAVEGAARTTPSR [PALM]

2.39
4.53
2.29
4.61
5.57
4.38
3.27
5.11

Each of the following entries comes with a recorded value; kindly state protein stability index for each.
1. GLANSSRVRGRVGTIRPVRCPSSS [C22orf15]
2. KVQELMSTHELEKKELEENFEKLR [MTUS2]
3. YAKKESDLNGAQIKLREYEAALNS [LMNB1]
4. PRSHFTTPAPMSSAWKTVACGGTR [MYBL2]
5. EFDLSPLNLDIGQVYKETRLFLDG [AASDHPPT]
6. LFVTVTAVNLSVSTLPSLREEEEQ [KCNG1]
7. SDAWTYCISKNEWIQFNHPYTEKP [KLHDC2]
8. EAVRQEMRRQEPLPPPPPPSRGGN [WAS]

4.12
4.97
4.07
2.77
2.89
2.13
2.34
5.18

###

method: protein stability index of a GFP-peptide fusion (GPS, HEK-293T) (PSI 1-6); higher = more stable
particulars: treatment: DMSO; c terminus: a fixed tail appended
Mark Yes for reported protein stability index of 3 or greater; mark No for anything smaller.

# count of solved cases: 5
INSERT INTO assay_data (monomer_sequence, answer_label) VALUES
  ('VKGRVRCLTAGPEVAAQLPAVRQL [ZSWIM9]', 'Yes'),
  ('IEAEGATAPLTELLHSRNEGVATY [CTNNB1]', 'Yes'),
  ('LDVVDNQTEKLDTNITEVDAASVY [CASP6]', 'Yes'),
  ('TAYSRLNETQPIDLSGLPLQSSKN [RNF180]', 'Yes'),
  ('VLDILTRLPESVERLTGVSISQVN [FLOT1]', 'No');

Is reported protein stability index greater than or equal to 3 here: RRKEEEVQQQKLAEERRRQNLQEE [FAF2]
Yes

Queued: AKFWPRRRFNFFVLENNLEAVARH [DNAAF3]
No

###

Field: protein stability index. Provide a value for each of the sequences that follow.
method: protein stability index of a GFP-peptide fusion (GPS, HEK-293T) (PSI 1-6); higher = more stable
particulars: treatment: MLN4924 1 uM, 8 h; c terminus: a fixed tail appended
Give bare numbers.

# example entries with known answers
INSERT INTO measurements (monomer_sequence, property, numeric_value) VALUES
  ('ALVIMWQKHYVYGPLPQSFDKEWV [COX4I1]', 'protein stability index', 2.92),
  ('APGADVKVHRARKTMPKSVVGLHA [EHMT1]', 'protein stability index', 3.91),
  ('GSPQQPGLSAPHSRQIPAPQGAVL [KISS1]', 'protein stability index', 4.61);

For every item below, please supply its protein stability index.
1. QKLDAFLQPLSKPLSSQPQAIVTE [MLH1]
2. RFLVGMMNGGMSLVAFVLLNECVG [SLC22A15]

4.21
2.9

Below is a list of sequences. For each, state its recorded protein stability index.
1. AIVFTDGRAQDDVSEWASKAKANG [MATN2]
2. QIKCIELKSELGRKWHKASNYIFV [P2RY14]
3. SQMFPSSKARTKSLLGDDVFSTMA [FBF1]

1: 4.26; 2: 2.67; 3: 2.97

Items follow; give protein stability index for each.
1. FVEDQAVVETVFFLTSRTRALLRR [ZSWIM9]
2. AGSTAGAAETRGAVEGAARTTPSR [PALM]
3. TPLLNGSSQDRMFETMAIEIEQLL [GOSR1]
4. VKGRVRCLTAGPEVAAQLPAVRQL [ZSWIM9]

1: 2.22; 2: 5.14; 3: 3.28; 4: 3.12

I have this sequence here, RGPLNSDRSDYFAAWGARVFSFGK [TRIM43] , and I need its recorded protein stability index.
2.76

###

method: protein stability index of a GFP-peptide fusion (GPS, HEK-293T) (PSI 1-6); higher = more stable
particulars: treatment: DMSO; c terminus: a fixed tail appended
Answer each item with its documented protein stability index.

For each of the sequences below, state protein stability index.
1. QVDSLRPASFPTWGCDLGVVTRVV [BRF1]
2. GVSFQAISSMADFWDFAQGPLLDS [PKD2L1]
3. PLDAGEYCVPRGNRRRFRVRQPIL [BEX1]
4. FPAEERARVLDRRGCSRVEGGGTS [ANKRD9]
5. SNADQLMENIGAIQVLPKLSSSII [KCNAB2]

[2.66, 2.4, 3.47, 4.42, 3.21]

###

method: protein stability index of a GFP-peptide fusion (GPS, HEK-293T) (PSI 1-6); higher = more stable
particulars: treatment: DMSO; c terminus: a fixed tail appended
Param threshold (3) applies to protein stability index; output yes (1) when value >= threshold, no (0) when value < threshold.

Example entries begin here.
INSERT INTO measurements (monomer_sequence, answer_label) VALUES
  ('CSKVSELTERLKVLEAKMTMLTVI [EMID1]', 'no (0)'),
  ('ELQSQLSMKASLEGNLAETENRYC [KRT17]', 'yes (1)');

Check this sequence for protein stability index at or above 3: SAEINQDLNIQLLKDGYRLDEIPD [FAM219A]
yes (1)

###

Exercise: state measured protein stability index for each of the sequences provided.
method: protein stability index of a GFP-peptide fusion (GPS, HEK-293T) (PSI 1-6); higher = more stable
particulars: treatment: DMSO; c terminus: a fixed tail appended
Numbers only.

Parameters: items (list). Returns: protein stability index for each item.
1. YRYCCKLNKKLKSYSLSRKKIVHY [CDC14A]
2. ATGKHYGASSCDGCKGFFRRSVRK [HNF4A]

1: 2.27; 2: 3.35

###

method: protein stability index of a GFP-peptide fusion (GPS, HEK-293T) (PSI 1-6); higher = more stable
particulars: treatment: DMSO; c terminus: a fixed tail appended
Please go through the items and note down their protein stability index.
Answers are plain numbers.

Example entries and their recorded answers appear below.
INSERT INTO measurements (monomer_sequence, property, numeric_value) VALUES
  ('VLFLDHVMYTIHMGCHGFRDPFEC [IKZF1]', 'protein stability index', 3),
  ('HTPGGQNQEILLPGGITSHQLLGL [TNXB]', 'protein stability index', 3.33),
  ('NLLGEAAGGQDMADSMLMQGSRGL [HDAC6]', 'protein stability index', 4.1),
  ('EIIEGNTKSHIMLVQRQMSVIEED [NECAB1]', 'protein stability index', 3.56),
  ('DIVDRGSTNLGVNQAGFTLHSAIY [ADD1]', 'protein stability index', 2.36);

Hi there! I need protein stability index for each item below, if you can.
1. LSIYVGCDKYPHESQLPEEWENNR [CPXM2]
2. LKKMGKRLDYLNLKGARLTVEQGC [FBXO39]
3. LRRTMQELEIELQSQLSMKAGLEN [KRT15]

1: 2.98; 2: 2.62; 3: 2.86

# batch size: 2; output protein stability index per entry
1. LAGLSVGRSSLTACSLPLCACLLG [PXN]
2. PRPRPVSLSLRLPHQPVTAITRVS [SMTNL2]

1: 2.33; 2: 3.42
